- target.or.system: human ether-à-go-go-related gene (hERG) potassium channel (human);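 note: peak tail current of the secondary pulse compared with the same well before compound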
- Sequence (Q12809 whole entry, looked up): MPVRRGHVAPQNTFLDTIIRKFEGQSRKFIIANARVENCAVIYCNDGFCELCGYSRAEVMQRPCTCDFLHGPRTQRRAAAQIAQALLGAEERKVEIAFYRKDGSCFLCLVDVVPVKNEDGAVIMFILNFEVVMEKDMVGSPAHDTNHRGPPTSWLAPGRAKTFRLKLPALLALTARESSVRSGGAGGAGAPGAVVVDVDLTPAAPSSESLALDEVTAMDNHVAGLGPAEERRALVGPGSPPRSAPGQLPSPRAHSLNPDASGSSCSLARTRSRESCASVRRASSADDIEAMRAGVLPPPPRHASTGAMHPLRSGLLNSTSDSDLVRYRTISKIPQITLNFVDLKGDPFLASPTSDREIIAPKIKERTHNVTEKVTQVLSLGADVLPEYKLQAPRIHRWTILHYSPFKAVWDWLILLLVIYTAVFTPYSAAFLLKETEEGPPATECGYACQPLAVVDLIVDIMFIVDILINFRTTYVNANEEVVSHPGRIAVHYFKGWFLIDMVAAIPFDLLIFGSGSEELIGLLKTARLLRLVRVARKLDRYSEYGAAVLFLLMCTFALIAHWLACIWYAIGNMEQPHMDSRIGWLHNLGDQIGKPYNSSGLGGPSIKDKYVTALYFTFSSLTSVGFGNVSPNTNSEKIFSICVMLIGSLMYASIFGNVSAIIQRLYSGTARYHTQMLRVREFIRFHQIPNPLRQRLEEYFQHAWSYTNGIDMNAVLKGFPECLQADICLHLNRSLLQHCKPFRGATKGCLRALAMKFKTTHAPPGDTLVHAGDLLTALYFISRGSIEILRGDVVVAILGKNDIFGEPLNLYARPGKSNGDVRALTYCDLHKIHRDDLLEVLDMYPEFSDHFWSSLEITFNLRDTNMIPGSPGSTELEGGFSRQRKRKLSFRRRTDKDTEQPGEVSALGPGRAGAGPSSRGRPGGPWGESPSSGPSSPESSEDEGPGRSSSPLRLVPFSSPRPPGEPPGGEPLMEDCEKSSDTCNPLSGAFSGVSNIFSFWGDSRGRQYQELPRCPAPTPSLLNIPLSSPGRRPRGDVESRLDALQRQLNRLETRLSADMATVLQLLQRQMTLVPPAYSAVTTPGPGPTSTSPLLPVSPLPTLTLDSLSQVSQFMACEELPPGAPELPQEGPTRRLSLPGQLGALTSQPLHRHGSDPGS
- protocol.notes: primary screen, population patch clamp on CHO cells stably expressing hERG; higher = less effect of the substance
About 14,000 (4.5%) of roughly 310,000 compounds showed an effect of 50% or more. The effect is printed as a negative number. Many of the other results were omitted from the sample, so strong results are more common in it than they were.
Could you please report measured hERG current change (%, negative = inhibition) at 10uM for the items listed next?
# value in %; strip the unit string

stdin: For the molecule CN(C)/C=C/C(=O)c1ccc2noc(-c3cccc(F)c3)c2c1 , what hERG current change (%, negative = inhibition) at 10uM is on record?
stdout: -50.2

stdin: For the molecule Cc1cccc(-c2onc3ccc(C(=O)/C=C/N(C)C)cc23)c1 , what hERG current change (%, negative = inhibition) at 10uM is on record?
stdout: -42

stdin: For the molecule O=C(O)C1CCCCC1C(=O)Nc1nc(-c2ccc(Cl)s2)cs1 (stereo not shown) , what hERG current change (%, negative = inhibition) at 10uM is on record?
stdout: 13.7

stdin: For the molecule CC(=O)c1ccc2noc(-c3cccc(F)c3)c2c1 , what hERG current change (%, negative = inhibition) at 10uM is on record?
stdout: 2.79

stdin: For the molecule COc1cccc(-c2onc3ccc(C(=O)/C=C/N(C)C)cc23)c1 , what hERG current change (%, negative = inhibition) at 10uM is on record?
stdout: -31.4

stdin: For the molecule Cc1cc(C)c(N(C(=O)c2csnn2)C(C(=O)NC(C)(C)C)c2ccncc2)c(C)c1 (stereo not shown) , what hERG current change (%, negative = inhibition) at 10uM is on record?
stdout: 9.01

stdin: For the molecule COc1ccccc1N(CC(O)COc1c(C)cc(C)cc1C)S(=O)(=O)c1ccccc1 (stereo not shown) , what hERG current change (%, negative = inhibition) at 10uM is on record?
stdout: -0.161

stdin: For the molecule COc1cc(-c2nc3ccccn3c2/N=C/c2cccc(F)c2)ccc1O , what hERG current change (%, negative = inhibition) at 10uM is on record?
stdout: 4.38

stdin: For the molecule CN(C)/C=C/C(=O)c1ccc2noc(-c3ccc(F)cc3)c2c1 , what hERG current change (%, negative = inhibition) at 10uM is on record?
stdout: -9.41

stdin: For the molecule N=c1c2c3c(sc2nc2n1CCC2)CCCC3 , what hERG current change (%, negative = inhibition) at 10uM is on record?
stdout: -28.9

Where these numbers come from: paper PMC4336329
